These data points were gathered from ChEMBL document CHEMBL1961873.

- Measured on: Casein kinase I isoform alpha (Homo sapiens)
- Stated conditions: at 1 µM
Rule: inhibition under 6% gives label 0, otherwise label 1.

Use these answered entries as a reference point.
>>> assigned_class("COc1cc2ncn(-c3cc(OCc4ccccc4C(F)(F)F)c(C(C)=O)s3)c2cc1OC")
"label 0"
>>> assigned_class("COc1cc(N2CCN(C(C)C)CC2)ccc1Nc1nc(Nc2ccc(F)cc2C(=O)NC[C@@H](O)CO)c2cc[nH]c2n1")
"label 1"
>>> assigned_class("NC(=O)Cc1ccccc1Oc1nccc(-c2c(-c3ccc(F)cc3)ncn2C2CCNCC2)n1")
"label 1"
>>> assigned_class("O=C(Nc1n[nH]c2cc(-c3ccccc3)ccc12)C1CC1")
"label 0"
>>> assigned_class("Fc1ccc(-c2ncn(CCCN3CCOCC3)c2-c2ccncc2)cc1")
"label 0"
>>> assigned_class("Cc1ccc(C(=O)NC2CCC2)cc1-c1ccc(C(=O)NCC2CC2)cc1")
"label 1"
>>> assigned_class("c1ccc(Oc2ccc(Nc3ncc(-c4ccccc4)o3)cc2)cc1")
"label 1"
>>> assigned_class("CCS(=O)(=O)c1ccc(OC)c(Nc2ncc(-c3ccccc3Cl)o2)c1")
"label 0"

(Q) # bool: inhibition of c1ccc(-c2n[nH]cc2-c2ccnc(-c3ccc(OCCN4CCOCC4)cc3)c2)nc1 >= 6%
(A) label 0

(Q) Next record, please: CN1CCN(CCCNc2nc3ccc(Oc4ccc(NC(=O)Nc5cc(C(F)(F)F)ccc5F)cc4)cc3[nH]2)CC1
(A) label 0

(Q) Next record, please: COc1cc2ncn(-c3cc(OCCc4ccccc4)c(C(N)=O)s3)c2cc1OC
(A) label 0

----------
Below, each entry is listed alongside its reported inhibition.
- Test system: Tyrosine-protein kinase ABL1 (Homo sapiens), P00519 [T315I]
- Stated conditions: at 1 µM
Give the number; % is assumed, so skip it.

>>> recorded_result("O=C(Nc1ccc(Oc2ccc3[nH]c(NC(=O)c4ccccc4)nc3c2)cc1)Nc1cc(C(F)(F)F)ccc1F")
83
>>> recorded_result("Nc1nccc(-c2c(-c3ccc(F)cc3)ncn2C2CCC(O)CC2)n1 (stereo not given)")
42.7
>>> recorded_result("COc1cc2ncn(-c3cc(OCc4cccs4)c(C(N)=O)s3)c2cc1OC")
59.6
>>> recorded_result("COc1cc(Nc2ncc3c(C)nc(-c4cccc(C(F)(F)F)c4)n3n2)cc(OC)c1OC")
13.1
>>> recorded_result("CCc1cccc(CC)c1/C=C/c1cncc(C(=O)NC)c1")
4.76
>>> recorded_result("Fc1ccc(-c2ncn(CCCN3CCOCC3)c2-c2ccncc2)cc1")
-0.98
>>> recorded_result("NS(=O)(=O)c1ccc(N/N=C2\\C(=O)Nc3ccc(C(=O)NCCCn4ccnc4)cc32)cc1")
14.2
>>> recorded_result("O=C1Nc2ccccc2/C1=C/Nc1ccc(-n2cncn2)cc1")
17.2
>>> recorded_result("COc1ccc2ncn(-c3cc(O[C@H](C)c4ccccc4Cl)c(C(N)=O)s3)c2c1")
3.67
>>> recorded_result("C/C(Nc1ccc(S(N)(=O)=O)cc1)=C1/C(=O)Nc2ccccc21")
12.2

(Q) Query (compound): CS(=O)(=O)CCNCc1cc(-c2cc3c(Nc4ccc(OCc5cccc(F)c5)c(Cl)c4)ncnc3s2)cs1 ; field requested: inhibition
(A) 4.55

(Q) Next record, please: FC(F)(F)c1cccc(Nc2nccc(-c3cnn4nc(-c5ccccc5)ccc34)n2)c1
(A) 1.88

(Q) Next record, please: COc1cc(Nc2ncc(-c3ccccc3)o2)cc(OC)c1OC
(A) 22.3

(Q) Next record, please: C#Cc1cccc(Nc2ncnc3ccc(OCCCCNCCS(C)(=O)=O)cc23)c1
(A) 19.4

(Q) Next record, please: CCN(CC)Cc1ccc(Nc2nccc(-c3cnn4ncccc34)n2)cc1
(A) 47.4
